These entries and their values trace back to patent US8946234B2.

- Assay remarks: log P from HPLC-MS, no method note printed
- Assay type: physicochemical
- Conditions: method not given
Please respond with MET when measured chromatographic logP is strictly beneath 2, and with NOT MET in all other cases.

Molecule	Group label
COC(=O)c1c(I)c(OC(F)F)nn1C	NOT MET
COC(=O)c1cc(-c2ccc(C(F)(F)F)cc2)nn1C	NOT MET
Cn1nc(C(C)(C)F)c(C(F)(F)F)c1C(=O)O	MET
Cn1nc(C(O)C2CC2)c(C(F)(F)F)c1C(=O)O (stereo not shown)	MET
CCOC(=O)c1c(C(F)(F)F)c(CO)nn1C	MET
COC(=O)c1c(I)c(-c2ccc(C(F)(F)F)cc2)nn1C	NOT MET
Cn1nc(C(F)(F)C(F)(F)F)c(C(F)(F)F)c1SCc1ccccc1	NOT MET
O=C(O)c1sc(C(F)(F)C(F)(F)F)nc1C(F)(F)F	NOT MET
Cn1nc(C2CC2)c(Br)c1C(=O)O	MET
Cn1nc(C(F)(F)C(F)(F)F)c(I)c1C(=O)O	NOT MET
CCOC(=O)c1c(C(F)(F)F)c(C=O)nn1C	NOT MET
O=C(O)c1nccc(Cl)c1C(F)(F)F	MET
CCOC(=O)c1c(C(F)(F)F)c(C(F)F)nn1C	NOT MET
